Parameter: MIC. Scope: all listed entries.
system: Staphylococcus aureus; experiment: Antimicrobial activity against Staphylococcus aureus MLS-16 MTCC 2940 after 24 hrs by well diffusion method; format: functional; conditions: MLS-16 MTCC 2940, 24 h
Expressed in µg/mL, but write only the number.

> print(dat)
                                   compound  assay.value
1  O=C(O)c1cn(C2CC2)c2cc(N3CCNCC3)c(F)cc2c1=O [CIPROFLOXACIN]         0.58

Recorded MIC (compound `COc1cc(Cn2cc(CNC(=O)c3ccc([N+](=O)[O-])o3)nn2)ccc1F` ): 9.37

Recorded MIC (compound `COc1ccc(Cn2cc(CNC(=O)c3ccc([N+](=O)[O-])o3)nn2)cc1[N+](=O)[O-]` ): 4.68

Recorded MIC (compound `O=C(NCc1cn(Cc2ccc(F)c(Cl)c2)nn1)c1ccc([N+](=O)[O-])o1` ): 2.34

Recorded MIC (compound `O=C(NCc1cn(Cc2ccc(C(F)(F)F)cc2)nn1)c1ccc([N+](=O)[O-])o1` ): 2.34

Recorded MIC (compound `COc1ccc(Cn2cc(CNC(=O)c3ccc([N+](=O)[O-])o3)nn2)cc1F` ): 4.68

These entries and their values trace back to ChEMBL document CHEMBL3091424.
